Value source: patent US10253052B2

measurementDescription: In vivo biodistribution in mice
Set-up: species or system normal CD-1 male mice
measurementParameters: iv, 60 min (1 hr) post injection
experimentalEndpoint: Biodistribution: Brain
Hey, just the number and the unit after it is fine.

compound	result
O=C([O-])CN(CCN(CC(=O)[O-])Cc1cc(CCC(=O)NC(P(=O)(O)O)P(=O)(O)O)ccc1[O-])Cc1cc(CCC(=O)NCCCNC(=O)CCc2ccc(O)c(CN(CCN(CC(=O)O)Cc3cc(CCC(=O)NC(P(=O)(O)O)P(=O)(O)O)ccc3O)CC(=O)O)c2)ccc1[O-].[68Ga+3] [[^68Ga]3]	0.06 ± 0.01 % dose/g
[18F-].[Na+] [[^18F]NaF, reference compound]	0.06 ± 0.01 % dose/g
O=C([O-])CN(CCN(CC(=O)[O-])Cc1cc(CCC(=O)NC(P(=O)(O)O)P(=O)(O)O)ccc1[O-])Cc1cc(CCC(=O)NC2C(O)OC(CO)C(O)C2O)ccc1[O-].[68Ga+3] (centres unmarked) [[^68Ga]1b]	0.02 ± 0.01 % dose/g
O=C([O-])CN(CCN(CC(=O)[O-])Cc1cc(CCC(=O)O)ccc1[O-])Cc1cc(CCC(=O)O)ccc1[O-].[68Ga+3] [[^68Ga]HBED-CC, reference compound]	0.02 ± 0.01 % dose/g

Next, consider the following compound.
Bench note: what Biodistribution: Brain did O=C([O-])CN(CCN(CC(=O)[O-])Cc1cc(CCC(=O)NC(P(=O)(O)O)P(=O)(O)O)ccc1[O-])Cc1cc(CCC(=O)NCC(=O)O)ccc1[O-].[68Ga+3] [[^68Ga]1c] show?
0.03 ± 0.01 % dose/g
